System: L. donovani promastigotes
Assay: L. donovani promastigote assay (Alamar blue)
Type: cell-based, Leishmania donovani
Details: HeLa CC50 / L. donovani promastigote EC50
Attribute: S.I (CC50/IC50), L. donovani promastigote
MEASUREMENT_NAME: S.I (CC50/IC50), L. donovani promastigote

{"SMILES_STR": "Cn1c2ccccc2c2cc(C(=O)N3CCN(c4ccc(Cl)cc4)CC3)nc(-c3ccccc3)c21", "OBSERVED_MEASUREMENT": ">99.6"}
{"SMILES_STR": "COc1ccccc1N1CCN(C(=O)c2cc3c4ccccc4n(C)c3c(-c3ccccc3)n2)CC1", "OBSERVED_MEASUREMENT": ">59.4"}
{"SMILES_STR": "Cn1c2ccccc2c2cc(C(=O)N3CCN(c4ccncc4)CC3)nc(-c3ccccc3)c21", "OBSERVED_MEASUREMENT": 1.52}
{"SMILES_STR": "Cc1ccccc1N1CCN(C(=O)c2cc3c4ccccc4n(C)c3c(-c3ccccc3)n2)CC1", "OBSERVED_MEASUREMENT": ">52.9"}
{"SMILES_STR": "Cn1c2ccccc2c2cc(C(=O)N3CCN(c4ccccc4Cl)CC3)nc(-c3ccccc3)c21", "OBSERVED_MEASUREMENT": ">32.9"}
{"SMILES_STR": "Cn1c2ccccc2c2cc(C(=O)N3CCN(c4ccc(F)cc4)CC3)nc(-c3ccccc3)c21", "OBSERVED_MEASUREMENT": ">40.3"}
{"SMILES_STR": "Cn1c2ccccc2c2cc(C(=O)N3CCN(c4cccc(Cl)c4)CC3)nc(-c3ccccc3)c21", "OBSERVED_MEASUREMENT": ">125"}
{"SMILES_STR": "Cn1c2ccccc2c2cc(C(=O)N3CCN(Cc4ccccc4)CC3)nc(-c3ccccc3)c21", "OBSERVED_MEASUREMENT": ">109.4"}
